# System: KMS-12-BM
# ASSAY PROTOCOL: CellTiter-Glo cell viability, KMS-12-BM
# Format: cell-based
# EXPERIMENTAL CONTEXT: Homo sapiens, 72 h, read-out: Antiproliferative IC50u
OBSERVED PROPERTY: pIC50
Kindly note that pIC50 refers to -log10 of the concentration in mol/L and answer with the value alone.

# MOLECULE, NUMERIC VALUE
records = [
    ("Cc1c2c(nn1C)CSCc1cc(n(C)n1)CSc1cc(c3ccccc3c1)OCCCc1c(C(=O)O)n(C)c3c-2c(Cl)ccc13 [AZD5991]", 9.15),
]

Next item in the queue.
Measured pIC50 of CO[C@H]1/C=C/C[C@H](C)[C@@H](C)S(=O)(=O)NC(=O)c2ccc3c(c2)N(C[C@@H]2CC[C@H]21)C[C@@]1(CCCc2cc(Cl)ccc21)CO3 [AMG176] : 8.72

====

# Tested on: KMS-12-BM
# ASSAY PROTOCOL: CellTiter-Glo cell viability, KMS-12-BM
# Assay type: cell-based
# EXPERIMENTAL CONTEXT: Homo sapiens, 72 h, read-out: Anti-proliferative IC50
OBSERVED PROPERTY: pIC50
# pIC50: negative log10 of molar concentration; output just the value

What the record says about `CO[C@H]1/C=C/C[C@H](C)[C@@H](C)S(=O)(=O)NC(=O)c2ccc3c(c2)N(C[C@@H]2CC[C@H]21)C[C@@]1(CCCc2cc(Cl)ccc21)CO3` : pIC50 is 6.74

# pIC50 (compound: `Cc1c2c(nn1C)CSCc1cc(n(C)n1)CSc1cc(c3ccccc3c1)OCCCc1c(C(=O)O)n(C)c3c-2c(Cl)ccc13` ) is 7.48
